Origin of the recorded values: ChEMBL document CHEMBL1151536

pKi: −log10 of the molar value.
Serine protease 1 (Homo sapiens) data, read-out pKi
Sequence (P07477 whole entry): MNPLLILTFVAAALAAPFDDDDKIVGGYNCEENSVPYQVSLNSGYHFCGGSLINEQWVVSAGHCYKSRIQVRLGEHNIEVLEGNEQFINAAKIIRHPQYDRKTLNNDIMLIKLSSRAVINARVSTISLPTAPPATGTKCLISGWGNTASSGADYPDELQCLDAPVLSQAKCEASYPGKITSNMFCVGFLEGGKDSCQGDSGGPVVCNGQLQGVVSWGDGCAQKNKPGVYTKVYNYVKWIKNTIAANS
readout: pKi

• CC1(C)C2CC1[C@]1(C)OB([C@H](CCCN=C(N)N)NC(=O)c3ccc(-c4ccccc4)c([N+](=O)[O-])c3)O[C@@H]1C2 (stereo partly drawn) = 8.32

(A) CC(C)(C)OC(=O)Nc1cccc(-c2ccc(C(=O)N[C@@H](CCCNC(=N)N)B3O[C@@H]4CC5CC(C5(C)C)[C@]4(C)O3)s2)c1 (stereo partly drawn)
(B) Cc1cc(-c2ccccc2C(F)(F)F)ccc1C(=O)N[C@@H](CCCN=C(N)N)B1O[C@@H]2CC3CC(C3(C)C)[C@]2(C)O1 (stereo partly drawn)
(C) CC1(C)C2CC1[C@]1(C)OB([C@H](CCCN=C(N)N)NC(=O)c3ccc(-c4ccccc4)cc3)O[C@@H]1C2 (stereo partly drawn)
(D) COC(=O)NS(=O)(=O)c1ccccc1-c1ccc(C(=O)N[C@@H](CCCN=C(N)N)B2O[C@@H]3CC4CC(C4(C)C)[C@]3(C)O2)c(C)c1 (stereo partly drawn)
(E) CC1(C)C2CC1[C@]1(C)OB([C@H](CCCN=C(N)N)NC(=O)c3ccc(-c4ccccc4)cc3N)O[C@@H]1C2 (stereo partly drawn)
Please put the entries in order of rising pKi. List the labels, following the order given in the request.
C, A, E, B, D
(C: 7.48, A: 7.89, E: 8.28, B: 8.51, D: 9.19)

(P) Cc1cc(-c2ccccc2S(N)(=O)=O)ccc1C(=O)N[C@@H](CCCN=C(N)N)B1O[C@@H]2CC3CC(C3(C)C)[C@]2(C)O1 (stereo partly drawn)
(Q) CC1(C)C2CC1[C@]1(C)OB([C@H](CCCNC(=N)N)NC(=O)c3cccc(-c4ccccc4)c3)O[C@@H]1C2 (stereo partly drawn)
Of P and Q , which one carries the higher reported pKi? Label of pick, please.
P
